Molecular target: Mitogen-activated protein kinase 3 (Homo sapiens)
Sequence (P27361 whole entry): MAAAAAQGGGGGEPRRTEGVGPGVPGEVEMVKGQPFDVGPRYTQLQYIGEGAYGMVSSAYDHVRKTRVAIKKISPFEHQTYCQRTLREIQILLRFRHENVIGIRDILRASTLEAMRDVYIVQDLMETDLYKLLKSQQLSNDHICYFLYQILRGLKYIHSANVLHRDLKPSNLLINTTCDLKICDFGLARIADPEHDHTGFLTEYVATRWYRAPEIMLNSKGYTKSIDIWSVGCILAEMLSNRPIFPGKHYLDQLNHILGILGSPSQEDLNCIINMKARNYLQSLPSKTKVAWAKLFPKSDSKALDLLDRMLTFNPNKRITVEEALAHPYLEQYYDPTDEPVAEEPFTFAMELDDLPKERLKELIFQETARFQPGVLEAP
Test: Inhibitory concentration against Extracellular signal-regulated kinase 1
reported.property: IC50

# smiles.input, reported.property, experimental.value
records = [
    ("FC(F)(F)c1cnc(Nc2ccc3[nH]cnc3c2)nc1Nc1ccccc1Cl", "IC50", "> 1000 nM"),
    ("COc1ccc(Nc2nc(Nc3ccc4[nH]cnc4c3)ncc2C(F)(F)F)cc1", "IC50", "> 1000 nM"),
    ("FC(F)(F)c1cnc(Nc2ccc(Br)cc2)nc1Nc1ccc2[nH]cnc2c1", "IC50", "750 nM"),
]

* * *

Quick reference: pIC50 of the listed items.
Assay: Inhibitory concentration against Mitogen-activated protein kinase p38
Design: species or system Homo sapiens
pIC50: −log10 of the molar value.
reported.property: pIC50

# smiles.input, reported.property, experimental.value
measured = [
    ("COc1ccc(Nc2nc(Nc3ccc4[nH]cnc4c3)ncc2C(F)(F)F)cc1", "pIC50", "< 6.00"),
    ("FC(F)(F)c1cnc(Nc2ccc3[nH]cnc3c2)nc1Nc1ccccc1Cl", "pIC50", "< 6.00"),
    ("FC(F)(F)c1cnc(Nc2ccc(Br)cc2)nc1Nc1ccc2[nH]cnc2c1", "pIC50", "< 6.00"),
]
